Source of measurements: paper PMC9860126

Molecular target: T1, HpNikR WT (Helicobacter pylori G27 (from vector …, UniProt A1YSQ9 1-148))
T1 sequence: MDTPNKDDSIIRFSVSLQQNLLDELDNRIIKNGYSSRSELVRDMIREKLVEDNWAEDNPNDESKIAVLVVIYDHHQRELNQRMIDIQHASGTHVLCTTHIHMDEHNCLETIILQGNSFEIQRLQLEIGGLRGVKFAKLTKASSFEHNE
Experiment: fluorescence anisotropy; Ni(II)-bound; FA: 5 nM DNA, 20 mM Tris pH 7.6, 100 mM NaCl, 3 mM MgSO4, temperature not stated (Ni loading 1.2 eq NiSO4 per monomer at RT). EMSA: 20 mM Tris pH 7.5, 100 mM KCl, 3 mM MgCl2, 0.1% IGEPAL, 5% glycerol, 0.1 mg/ml herring sperm DNA, RT; gel with 800 uM NiSO4 at 4 C
Conditions: protein: recombinant; tags: none stated (untagged purification); chain copies: 4; label: fluorescein on internal thymine (T14 of strand 1); blunt
Reported endpoint: Kd (nM)

1. ureA promoter 32 bp (FA) (dsDNA) DNA 1: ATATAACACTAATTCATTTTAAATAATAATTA DNA 2: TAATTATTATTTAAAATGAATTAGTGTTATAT | 4.5
2. ureA-perf promoter 32 bp (dsDNA) DNA 1: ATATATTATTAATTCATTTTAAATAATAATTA DNA 2: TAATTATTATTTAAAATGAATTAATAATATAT | 4.7
